tested on: RPE-1 cells; format: cell-based, human; details: read-out: IC50 in the dark, dark, Table 3 (645 nm series)
assay readout: IC50

Ask: Quick one: IC50 of `C=CC1=C(C)c2cc3[nH]c(cc4nc(cc5[nH]c(cc1n2)c(C)c5CCC(=O)O)C(CCC(=O)O)=C4C)c(C)c3C=C` ?
Reply: > 100 µM

----------
tested on: RPE-1 cells; assay type: cell-based, human; conditions: read-out: IC50 upon 645 nm irradiation, 645 nm for 1 h (9.00 J/cm2)
assay readout: IC50 (nM)
The reply should be a number in nM, with the unit left off.

Ask: Quick one: IC50 of `C=CC1=C(C)c2cc3[nH]c(cc4nc(cc5[nH]c(cc1n2)c(C)c5CCC(=O)O)C(CCC(=O)O)=C4C)c(C)c3C=C` ?
Reply: 300
